measurement_target: PCG2-DBD 12-138 (Magnaporthe oryzae, UniProt G4NA99 12-138)
experiment_summary: SPR; SPR (Biacore T100, steady state): 20 mM Tris pH 8.0, 150 mM NaCl, 0.005% Tween20; temperature not stated
setup_conditions: protein: recombinant; tags: N-terminal 6xHis; chain copies: 2; label: 5'-biotin on strand S2; blunt
experimental_endpoint: Kd

[[record]]
binder = "MCB1 DNA (SPR) (dsDNA) DNA 1: CTTACGCGTCATTG DNA 2: CAATGACGCGTAAG"
observed_value = "1370 nM"


Hello, the source for this data is paper PMC4333399, in case you need it.
